- CONDITION_SET: pH 2.7
Marks after values point to notes of the source that are not given here.
Measured Log P, listed per entry.

{"MOLECULE": "COC(=O)C(C#N)=C(NC(C)c1ccc(C(F)(F)F)cc1)c1cccnc1Cl (centres unmarked)", "Log P": "3.37^[a]"}
{"MOLECULE": "COC(=O)C(C#N)=C(NC(C)c1ccccn1)c1cn(C)nc1C(F)F (racemic)", "Log P": "2.05^[a]"}

[ask] Consider the molecule CCOCC(NC(=C(C#N)C(=O)OC)c1cccnc1Cl)C(C)C (centres unmarked) and give its recorded Log P.
[reply] 3.11^[a]

[ask] Consider the molecule CCOC(=O)C(C#N)=C(NC(C)C(C)C)c1ccnc(Br)c1Br (centres unmarked) and give its recorded Log P.
[reply] 3.96^[a]

[ask] Consider the molecule CCOC(=O)C(C#N)=C(NC(C)c1ccccn1)c1cn(C)nc1C(C)(F)F (centres unmarked) and give its recorded Log P.
[reply] 2.57^[a]

---

Measured Log P, listed per entry.
- CONDITION_SET: pH 2.7
Marks after values point to notes of the source that are not given here.

Past entries and their recorded results:
{"COMPOUND": "COC(=O)C(C#N)=C(NC(C)Cc1c[nH]c2ccccc12)c1sc(C)nc1C(F)(F)F (racemic)", "Log P": "3.6^[a]"}
{"COMPOUND": "CCC(NC(=C(C#N)C(=O)OC)c1cccnc1Cl)c1ccc(Cl)cc1 (centres unmarked)", "Log P": "3.58^[a]"}
{"COMPOUND": "C#CC(C)(C)NC(=C(C#N)C(=O)OCC)c1cn(C)nc1C(F)(F)F", "Log P": "3.02^[a]"}
{"COMPOUND": "COC(=O)C(C#N)=C(NC(C)CCCC(C)C)c1sc(C)nc1C(F)(F)F (centres unmarked)", "Log P": "4.78^[a]"}
{"COMPOUND": "COC(=O)C(C#N)=C(NC(C)CCc1ccccc1)c1sc(C)nc1C(F)(F)F (mixture of isomers)", "Log P": "4.01^[a]"}
{"COMPOUND": "CCOC(=O)C(C#N)=C(NCC(C)c1ccccc1Br)c1cn(C)nc1C(F)F (centres unmarked)", "Log P": "3.69^[a]"}

[ask] Consider the compound CCOC(=O)C(C#N)=C(NC(C)C(C)C)c1cnccc1C(F)(F)F (centres unmarked) and give its recorded Log P.
[reply] 3.5^[a]

[ask] Consider the compound C=CCCCC(C=C)NC(=C(C#N)C(=O)OCC)c1sc(C)nc1C(F)(F)F (centres unmarked) and give its recorded Log P.
[reply] 4.49^[a]

---

- CONDITION_SET: pH 7.5
PARAMETER: Log P

{"MOLECULE": "COC(=O)C(C#N)=C(Nc1cccc(SC)c1)c1cccnc1Cl [Compound 339]", "OBSERVED_RESULT": 2.83}
{"MOLECULE": "CCOC(=O)C(C#N)=C(NC1CCOC1=O)c1cccnc1Cl (racemic) [Compound 231]", "OBSERVED_RESULT": 1.77}
{"MOLECULE": "CCOC(=O)C(C#N)=C(NC(C)c1nc(C(=O)N(C)C)cs1)c1cccnc1Cl (mixture of isomers) [Compound 304]", "OBSERVED_RESULT": 2.08}

(I) CCOC(=O)C(C#N)=C(NC(CC)C(=O)OC)c1cccnc1Cl (stereo not drawn) [Compound 582]
(II) CSc1ccccc1NC(=C(C#N)C(=O)OCC(C)C)c1cccnc1Cl [Compound 347]
(III) CCOC(=O)C(C#N)=C(NC(C)c1nc(C(=O)O)cs1)c1cccnc1Cl (stereo not drawn) [Compound 244]
[ask] Which order do these items take when sorted by rising Log P? List them. Reply with the labels, ordered as the question asks.
[reply] III, I, II

(1) CC(C)C(C)NC(=C(C#N)C(=O)NC1CC1)c1cccnc1Cl (stereo not drawn) [Compound 1451]
(2) CCOC(=O)C(C#N)=C(NC(C)CCc1c(Cl)cccc1Cl)c1cccnc1Cl (mixture of isomers) [Compound 429]
[ask] Hi, I'm comparing 1 with 2 and wondering which one has the bigger number for Log P. Any idea? Mark your answer with the label of the selected entry.
[reply] 2

---

- CONDITION_SET: pH 2.7
Marks after values point to notes of the source that are not given here.
Measured Log P, listed per entry.

{"MOLECULE": "COC(=O)C(C#N)=C(NC(C)C1CC1)c1cccnc1Cl (stereo not drawn)", "Log P": "2.58^[a]"}

Continue with the next molecule.
[ask] Consider the molecule CCOC(=O)C(C#N)=C(NC(C)c1cccs1)c1cn(C)nc1C(F)F (stereo not drawn) and give its recorded Log P.
[reply] 3.02^[a]

---

- CONDITION_SET: pH 2.7
Marks after values point to notes of the source that are not given here.
Measured Log P, listed per entry.

Past entries and their recorded results:
{"COMPOUND": "C#CC(C)(C)NC(=C(C#N)C(=O)OCC)c1cc(Cl)sc1Cl", "OBSERVED_RESULT": "3.99^[a]"}
{"COMPOUND": "CCOC(=O)C(C#N)=C(NC(C)(C)C#Cc1ccc(C)cc1)c1sc(C)nc1C(F)(F)F", "OBSERVED_RESULT": "4.92^[a]"}
{"COMPOUND": "CCOC(=O)C(C#N)=C(NC1CCC1)c1cnc(Cl)cc1Cl", "OBSERVED_RESULT": "3.55^[a]"}
{"COMPOUND": "CCOC(=O)C(C#N)=C(NC(c1cc2ccccc2s1)C(F)(F)F)c1sccc1Br (racemic)", "OBSERVED_RESULT": "4.9^[a]"}
{"COMPOUND": "CCOC(=O)C(C#N)=C(NC(C)CC(C)C)c1cc(C)oc1C (racemic)", "OBSERVED_RESULT": "4.35^[a]"}
{"COMPOUND": "CCCc1nccc(C(NC(C)c2ccccn2)=C(C#N)C(=O)OCC)c1Cl (racemic)", "OBSERVED_RESULT": "3.29^[a]"}

[ask] Consider the compound CCOC(=O)C(C#N)=C(NC(C)C1CCCCC1)c1sccc1C(F)(F)F (stereo not drawn) and give its recorded Log P.
[reply] 5.11^[a]

[ask] Consider the compound CCOC(=O)C(C#N)=C(NC(C)C(C)C)c1cnn(C)c1Cl (stereo not drawn) and give its recorded Log P.
[reply] 3.25^[a]

[ask] Consider the compound CCOC(=O)C(C#N)=C(NC(C(=O)OC)C(C)C)c1cn(C)nc1OC (stereo not drawn) and give its recorded Log P.
[reply] 2.71^[a]

[ask] Consider the compound CCOC(=O)C(C#N)=C(NC(C)c1nccs1)c1nc(Cl)ccc1Cl (stereo not drawn) and give its recorded Log P.
[reply] 3.02^[a]

---

- CONDITION_SET: pH 2.3
PARAMETER: Log P

{"COMPOUND": "COC(=O)C(C#N)=C(NC(C)c1nccs1)c1sc(C)nc1C(F)(F)F (stereo not drawn) [Compound 17]", "Log P": 2.66}

(P) CCOC(=O)C(C#N)=C(Nc1cccc(F)c1C)c1cccnc1Cl [Compound 1610]
(Q) COC(=O)C(C#N)=C(NCC(N)=O)c1cccnc1Cl [Compound 569]
[ask] Hi, I'm comparing P with Q and wondering which one has the bigger number for Log P. Any idea? Mark your answer with the label of the selected entry.
[reply] P

---

- CONDITION_SET: pH 2.7
Marks after values point to notes of the source that are not given here.
PARAMETER: Log P

{"COMPOUND": "CCOC(=O)C(C#N)=C(NC(C)C1CC1)c1cc(Cl)ncc1Cl (racemic)", "Log P": "3.69^[a]"}

[ask] Consider the compound CCOC(=O)C(C#N)=C(Nc1ccccc1Cl)c1cccnc1Cl and give its recorded Log P.
[reply] 3.35^[a]

[ask] Consider the compound CCOC(=O)C(C#N)=C(NC(C)COCC(C)(C)C)c1cccnc1Cl (centres unmarked) and give its recorded Log P.
[reply] 4.34^[a]

[ask] Consider the compound CCOC(=O)C(C#N)=C(NC(C)c1cscn1)c1ccncc1C(F)(F)F (mixture of isomers) and give its recorded Log P.
[reply] 2.6^[a]

[ask] Consider the compound COC(=O)C(C#N)=C(NCc1ccccc1SC)c1sc(C)nc1C(F)(F)F and give its recorded Log P.
[reply] 3.55^[a]

[ask] Consider the compound CCOC(=O)C(C#N)=C(NC(C)c1ccccn1)c1ccncc1Cl (racemic) and give its recorded Log P.
[reply] 2.54^[a]

[ask] Consider the compound C=CCCCC(C=C)NC(=C(C#N)C(=O)OCC)c1sccc1Br (racemic) and give its recorded Log P.
[reply] 4.67^[a]

[ask] Consider the compound CCOC(=O)C(C#N)=C(NC(C)(C)CSC)c1cc(C)oc1C and give its recorded Log P.
[reply] 3.58^[a]

---

Measured Log P, listed per entry.
- CONDITION_SET: pH 2.7
Marks after values point to notes of the source that are not given here.

{"COMPOUND": "CCOC(=O)C(C#N)=C(NC(C)c1nc(C)c(C)s1)c1ncc(C(F)(F)F)cc1Cl (racemic) [Compound 37]", "PARAMETER": "Log P", "OBSERVED_RESULT": "4.04^[a]"}
{"COMPOUND": "CCOC(=O)C(C#N)=C(Nc1ccccc1Br)c1cc(C)oc1C [Compound 422]", "PARAMETER": "Log P", "OBSERVED_RESULT": "3.99^[a]"}
{"COMPOUND": "CCOC(=O)C(C#N)=C(NCc1nc(C)cs1)c1sc(C)nc1C(F)(F)F [Compound 195]", "PARAMETER": "Log P", "OBSERVED_RESULT": "2.9^[a]"}

Continue with the next compound.
[ask] Consider the compound CCOC(=O)C(C#N)=C(NCc1ccccn1)c1sccc1Br [Compound 99] and give its recorded Log P.
[reply] 2.61^[a]
